All values here come from paper PMC4897634.

Recorded measurements of MHC, minimum haemolytic concentration, one per entry
Test system: human erythrocytes
Assay: Haemolytic activity
Format: cell-based
Settings: concentration causing 10% haemolysis of hRBC; 37 °C, 30 min; 200 μM used when no haemolysis detectable at 100 μM
Where no end group is shown, it is not given here.
All answers are understood in µM, so give the number only.

RIGSILGRLAKGLPTLISWIKNR-NH2 [A(A1R, A8R)]	6.25
RIGVLLARLPKLFSLFKLMGKKV-NH2 [RV-23, reference compound]	6.25
AIGSILGALAKGLPTLISWIKNR-NH2 [AR-23, reference compound]	3.13
M(G1R, V8R, I17R): melittin analogue with residues at position 1, 8 and 17 replaced by positively charged residues (RIGAVLKRLTTGLPALRSWIKRKRQQ; not fully specified; ends and bridges not checked; UniProt P01501 44-69, looked up, variant G1R V8R I17R)	200

Identify measured MHC, minimum haemolytic concentration associated with RIGSILGALAKGLPTLKSWIKNR-NH2 [A(A1R, I17K)]
100

Identify measured MHC, minimum haemolytic concentration associated with AIGSILGRLAKGLPTLKSWIKNR-NH2 [A(A8R, I17K)]
100

Identify measured MHC, minimum haemolytic concentration associated with RIGSILGRLAKGLPTLRSWIKNR-NH2 [A(A1R, A8R, I17R)]
100

Identify measured MHC, minimum haemolytic concentration associated with AIGSILGALAKGLPTLKSWIKNR-NH2 [A(I17K)]
50

Identify measured MHC, minimum haemolytic concentration associated with AIGSILGALAKGLPTLRSWIKNR-NH2 [A(I17R)]
25
